test: Acute toxicity, various dosage pathways, 7-day lethality, LD50 by Litchfield-Wilcoxon; format: in vivo, ICR-JCL mice; details: mouse, in vivo, sc; mice (male, female); Hypodermic; read-out: LD50 value (95% confidence limit)
RECORDED METRIC: LD50 at 168 h

INSERT INTO results (structure_as_smiles, result) VALUES
  ('COC1=C(OC)C(=O)C(CC=C(C)CCC=C(C)CCC=C(C)CCC=C(C)CCC=C(C)CCC=C(C)CCC=C(C)CCC=C(C)CCC=C(C)CCC=C(C)C)=C(C)C1=O', '500 mg/kg');

* * *

assay: Acute toxicity, various dosage pathways, 7-day lethality, LD50 by Litchfield-Wilcoxon; assay type: in vivo, Wister rats; settings: rat, in vivo, sc; rats (male, female); Hypodermic; read-out: LD50 value (95% confidence limit)
RECORDED METRIC: LD50 at 168 h (mg/kg)

INSERT INTO results (molecule, recorded_metric, result_number) VALUES
  ('COC1=C(OC)C(=O)C(CC=C(C)CCC=C(C)CCC=C(C)CCC=C(C)CCC=C(C)CCC=C(C)CCC=C(C)CCC=C(C)CCC=C(C)CCC=C(C)C)=C(C)C1=O [ubiquinone-10]', 'LD50 at 168 h', 500);

* * *

assay: Acute toxicity, various dosage pathways, 7-day lethality, LD50 by Litchfield-Wilcoxon; assay type: in vivo, Wister rats; conditions: rat, in vivo; rats (male, female); Intravenous; read-out: LD50 value (95% confidence limit)
RECORDED METRIC: LD50 at 168 h

INSERT INTO assay_data (structure_as_smiles, result) VALUES
  ('COC1=C(OC)C(=O)C(CC=C(C)CCC=C(C)CCC=C(C)CCC=C(C)CCC=C(C)CCC=C(C)CCC=C(C)CCC=C(C)CCC=C(C)CCC=C(C)C)=C(C)C1=O', '250 mg/kg');

* * *

test: Acute toxicity, various dosage pathways, 7-day lethality, LD50 by Litchfield-Wilcoxon; assay type: in vivo, ICR-JCL mice; settings: mouse, in vivo; mice (male, female); Endermic; read-out: LD50 value (95% confidence limit)
RECORDED METRIC: LD50 at 168 h (mg/kg)

INSERT INTO assay_data (molecule, recorded_metric, result_number) VALUES
  ('COC1=C(OC)C(=O)C(CC=C(C)CCC=C(C)CCC=C(C)CCC=C(C)CCC=C(C)CCC=C(C)CCC=C(C)CCC=C(C)CCC=C(C)CCC=C(C)C)=C(C)C1=O [ubiquinone-10]', 'LD50 at 168 h', 4000);
